Each entry below lists one item and its recorded Emax value.
EXPERIMENTAL SYSTEM: Neuropeptide S receptor (Mus musculus) (UniProt Q8BZP8)
TEST NAME: Agonist activity at mouse recombinant NPSR expressed in HEK293 cells assessed as calcium mobilization relative to baseline
Type: functional, cell-based
Square brackets hold non-standard residues; d marks the D form. Peptide text beside a SMILES is read from it. Aib = CC(C)(N)C(=O)O
Number first, unit second.

CSCC[C@H](NC(=O)C(C)(C)NC(=O)[C@@H](NC(=O)CNC(=O)[C@@H](NC(=O)CNC(=O)[C@H](CC(N)=O)NC(=O)[C@H](CCCNC(=N)N)NC(=O)[C@H](Cc1ccccc1)NC(=O)[C@@H](N)CO)C(C)C)[C@@H](C)O)C(=O)N[C@@H](CCCCN)C(=O)N[C@@H](CCCCN)C(=O)N[C@H](C(=O)N[C@@H](CO)C(=O)N[C@@H](Cc1ccccc1)C(=O)N[C@@H](CCC(N)=O)C(=O)N[C@@H](CCCNC(=N)N)C(=O)N[C@@H](C)C(=O)N[C@@H](CCCCN)C(=O)N[C@@H](CO)C(=O)O)[C@@H](C)O (H-SFRNGVGT[Aib]MKKTSFQRAKS-OH): 190%

Now, please, on to the next compound.
Neuropeptide S receptor (Mus musculus) (UniProt Q8BZP8) data for CSCC[C@H](NC(=O)CNC(=O)[C@@H](NC(=O)C(C)(C)NC(=O)[C@@H](NC(=O)CNC(=O)[C@H](CC(N)=O)NC(=O)[C@H](CCCNC(=N)N)NC(=O)[C@H](Cc1ccccc1)NC(=O)[C@@H](N)CO)C(C)C)[C@@H](C)O)C(=O)N[C@@H](CCCCN)C(=O)N[C@@H](CCCCN)C(=O)N[C@H](C(=O)N[C@@H](CO)C(=O)N[C@@H](Cc1ccccc1)C(=O)N[C@@H](CCC(N)=O)C(=O)N[C@@H](CCCNC(=N)N)C(=O)N[C@@H](C)C(=O)N[C@@H](CCCCN)C(=O)N[C@@H](CO)C(=O)O)[C@@H](C)O (H-SFRNGV[Aib]TGMKKTSFQRAKS-OH) ; its Emax: 14%

###

Each entry below lists one item and its recorded Emax value.
EXPERIMENTAL SYSTEM: Neuropeptide S receptor (Mus musculus)
TEST NAME: Agonist activity at mouse recombinant NPSR expressed in HEK293 cells assessed as calcium mobilization relative to baseline
Assay type: functional, cell-based
Square brackets hold non-standard residues; d marks the D form. Peptide text beside a SMILES is read from it. Aib = CC(C)(N)C(=O)O
Give the number; % is assumed, so skip it.

CSCC[C@H](NC(=O)CNC(=O)[C@@H](NC(=O)CNC(=O)[C@@H](NC(=O)[C@H](C)NC(=O)[C@H](CC(N)=O)NC(=O)[C@H](CCCNC(=N)N)NC(=O)[C@H](Cc1ccccc1)NC(=O)[C@@H](N)CO)C(C)C)[C@@H](C)O)C(=O)N[C@@H](CCCCN)C(=O)N[C@@H](CCCCN)C(=O)N[C@H](C(=O)N[C@@H](CO)C(=O)N[C@@H](Cc1ccccc1)C(=O)N[C@@H](CCC(N)=O)C(=O)N[C@@H](CCCNC(=N)N)C(=O)N[C@@H](C)C(=O)N[C@@H](CCCCN)C(=O)N[C@@H](CO)C(=O)O)[C@@H](C)O (H-SFRNAVGTGMKKTSFQRAKS-OH): 178

Now, please, on to the next molecule.
// CSCC[C@H](NC(=O)CNC(=O)[C@@H](NC(=O)CNC(=O)[C@@H](NC(=O)CNC(=O)[C@H](CC(N)=O)NC(=O)[C@H](CCCNC(=N)N)NC(=O)[C@H](Cc1ccccc1)NC(=O)C(C)(C)N)C(C)C)[C@@H](C)O)C(=O)N[C@@H](CCCCN)C(=O)N[C@@H](CCCCN)C(=O)N[C@H](C(=O)N[C@@H](CO)C(=O)N[C@@H](Cc1ccccc1)C(=O)N[C@@H](CCC(N)=O)C(=O)N[C@@H](CCCNC(=N)N)C(=O)N[C@@H](C)C(=O)N[C@@H](CCCCN)C(=O)N[C@@H](CO)C(=O)O)[C@@H](C)O (H-[Aib]FRNGVGTGMKKTSFQRAKS-OH) : Emax value = 184

###

EXPERIMENTAL SYSTEM: Neuropeptide S receptor (Mus musculus) (UniProt Q8BZP8)
TEST NAME: Agonist activity at mouse recombinant NPSR expressed in HEK293 cells assessed as calcium mobilization relative to baseline
Format: functional, cell-based
OUTCOME MEASURE: Emax (%)
Give the number; % is assumed, so skip it.

// CSCC[C@H](NC(=O)[C@@H](C)NC(=O)[C@@H](NC(=O)CNC(=O)[C@@H](NC(=O)CNC(=O)[C@H](CC(N)=O)NC(=O)[C@H](CCCNC(=N)N)NC(=O)[C@H](Cc1ccccc1)NC(=O)[C@@H](N)CO)C(C)C)[C@@H](C)O)C(=O)N[C@@H](CCCCN)C(=O)N[C@@H](CCCCN)C(=O)N[C@H](C(=O)N[C@@H](CO)C(=O)N[C@@H](Cc1ccccc1)C(=O)N[C@@H](CCC(N)=O)C(=O)N[C@@H](CCCNC(=N)N)C(=O)N[C@@H](C)C(=O)N[C@@H](CCCCN)C(=O)N[C@@H](CO)C(=O)O)[C@@H](C)O : Emax value = 172

###

EXPERIMENTAL SYSTEM: Neuropeptide S receptor (Mus musculus) (UniProt Q8BZP8)
Sequence (whole entry): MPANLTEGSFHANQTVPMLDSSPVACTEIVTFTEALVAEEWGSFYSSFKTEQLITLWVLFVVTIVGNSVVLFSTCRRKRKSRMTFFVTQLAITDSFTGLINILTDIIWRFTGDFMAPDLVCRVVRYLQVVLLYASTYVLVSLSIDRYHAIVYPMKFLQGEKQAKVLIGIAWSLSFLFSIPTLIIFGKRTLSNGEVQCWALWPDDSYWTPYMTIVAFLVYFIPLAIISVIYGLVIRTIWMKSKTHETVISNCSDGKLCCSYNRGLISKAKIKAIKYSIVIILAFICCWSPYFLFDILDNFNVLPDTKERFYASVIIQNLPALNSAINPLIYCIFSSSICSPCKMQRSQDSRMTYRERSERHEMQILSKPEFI
TEST NAME: Agonist activity at mouse recombinant NPSR expressed in HEK293 cells assessed as calcium mobilization relative to baseline
Type: functional, cell-based
Peptide text beside a SMILES is read from it.
OUTCOME MEASURE: Emax (%)
Give the number; % is assumed, so skip it.

CSCC[C@H](NC(=O)CNC(=O)[C@@H](NC(=O)[C@H](C)NC(=O)[C@@H](NC(=O)CNC(=O)[C@H](CC(N)=O)NC(=O)[C@H](CCCNC(=N)N)NC(=O)[C@H](Cc1ccccc1)NC(=O)[C@@H](N)CO)C(C)C)[C@@H](C)O)C(=O)N[C@@H](CCCCN)C(=O)N[C@@H](CCCCN)C(=O)N[C@H](C(=O)N[C@@H](CO)C(=O)N[C@@H](Cc1ccccc1)C(=O)N[C@@H](CCC(N)=O)C(=O)N[C@@H](CCCNC(=N)N)C(=O)N[C@@H](C)C(=O)N[C@@H](CCCCN)C(=O)N[C@@H](CO)C(=O)O)[C@@H](C)O: 129

Now, please, on to the next compound.
// CSCC[C@H](NC(=O)CNC(=O)[C@@H](NC(=O)CNC(=O)[C@@H](NC(=O)CNC(=O)[C@H](CC(N)=O)NC(=O)[C@H](CCCNC(=N)N)NC(=O)[C@H](Cc1ccccc1)NC(=O)[C@@H](N)CO)C(C)C)[C@@H](C)O)C(=O)N[C@@H](CCCCN)C(=O)N[C@@H](CCCCN)C(=O)N[C@@H](C)C(=O)N[C@@H](CO)C(=O)N[C@@H](Cc1ccccc1)C(=O)N[C@@H](CCC(N)=O)C(=O)N[C@@H](CCCNC(=N)N)C(=O)N[C@@H](C)C(=O)N[C@@H](CCCCN)C(=O)N[C@@H](CO)C(=O)O (H-SFRNGVGTGMKKASFQRAKS-OH) : Emax value = 172

###

Each entry below lists one item and its recorded Emax value.
EXPERIMENTAL SYSTEM: Neuropeptide S receptor (Mus musculus) (UniProt Q8BZP8)
TEST NAME: Agonist activity at mouse recombinant NPSR expressed in HEK293 cells assessed as calcium mobilization relative to baseline
Type: functional, cell-based
Peptide text beside a SMILES is read from it.
Give the number; % is assumed, so skip it.

CSCC[C@H](NC(=O)[C@H](C)NC(=O)[C@@H](NC(=O)CNC(=O)[C@@H](NC(=O)CNC(=O)[C@H](CC(N)=O)NC(=O)[C@H](CCCNC(=N)N)NC(=O)[C@H](Cc1ccccc1)NC(=O)[C@@H](N)CO)C(C)C)[C@@H](C)O)C(=O)N[C@@H](CCCCN)C(=O)N[C@@H](CCCCN)C(=O)N[C@H](C(=O)N[C@@H](CO)C(=O)N[C@@H](Cc1ccccc1)C(=O)N[C@@H](CCC(N)=O)C(=O)N[C@@H](CCCNC(=N)N)C(=O)N[C@@H](C)C(=O)N[C@@H](CCCCN)C(=O)N[C@@H](CO)C(=O)O)[C@@H](C)O: 164
CSCC[C@H](NC(=O)[C@H](C)NC(=O)[C@@H](NC(=O)[C@H](C)NC(=O)[C@@H](NC(=O)CNC(=O)[C@H](CC(N)=O)NC(=O)[C@H](CCCNC(=N)N)NC(=O)[C@H](Cc1ccccc1)NC(=O)[C@@H](N)CO)C(C)C)[C@@H](C)O)C(=O)N[C@@H](CCCCN)C(=O)N[C@@H](CCCCN)C(=O)N[C@@H](C)C(=O)N[C@@H](CO)C(=O)N[C@@H](Cc1ccccc1)C(=O)N[C@@H](CCC(N)=O)C(=O)N[C@@H](CCCNC(=N)N)C(=O)N[C@@H](C)C(=O)N[C@@H](CCCCN)C(=O)N[C@@H](CO)C(=O)O (H-SFRNGVATAMKKASFQRAKS-OH): 69

Neuropeptide S receptor (Mus musculus) (UniProt Q8BZP8) data for CSCC[C@H](NC(=O)CNC(=O)[C@@H](NC(=O)CNC(=O)[C@@H](NC(=O)CNC(=O)[C@H](CC(N)=O)NC(=O)[C@H](CCCNC(=N)N)NC(=O)[C@H](Cc1ccccc1)NC(=O)[C@H](C)N)C(C)C)[C@@H](C)O)C(=O)N[C@@H](CCCCN)C(=O)N[C@@H](CCCCN)C(=O)N[C@H](C(=O)N[C@@H](CO)C(=O)N[C@@H](Cc1ccccc1)C(=O)N[C@@H](CCC(N)=O)C(=O)N[C@@H](CCCNC(=N)N)C(=O)N[C@@H](C)C(=O)N[C@@H](CCCCN)C(=O)N[C@@H](CO)C(=O)O)[C@@H](C)O (H-AFRNGVGTGMKKTSFQRAKS-OH) ; its Emax: 182
